Property: percent viability; scope: individual sequences
tested on: MCF10A; assay: percent viability (nuclei count relative to siNT); higher = more viable cells; conditions: 20 nM; 72 h

residue.string | measurement.unit | percent viability
UCAAUAGGAAAGAGGUGGGACCU [hsa-miR-6826-5p] | % | 33.3
GUGAAGGCCCGGCGGAGA [hsa-miR-6126] | % | 77.8
GAAGAUGGACGUACUUU [hsa-miR-4426] | % | 28.5
UGGGUGGAAGAAGGUCUGGUU [hsa-miR-6745] | % | 6.73
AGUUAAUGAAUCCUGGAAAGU [hsa-miR-569] | % | 90.6
ACUUCACCUGGUCCACUAGCCGU [hsa-miR-412] | % | 118
GGCCACUGAGUCAGCACCA [hsa-miR-4252] | % | 46.1
UUUGGGACUGAUCUUGAUGUCU [hsa-miR-3913-5p] | % | 69.2
AAGCUUUUUGCUCGAAUUAUGU [hsa-miR-208b-5p] | % | 108
UUCACAAGGAGGUGUCAUUUAU [hsa-miR-513b] | % | 62.4
UUAAUAUCGGACAACCAUUGU [hsa-miR-889] | % | 108
UAAAGUGCUUAUAGUGCAGGUAG [hsa-miR-20a-5p] | % | 81.6
CCAACCUAGGUGGUCAGAGUUG [hsa-miR-4714-3p] | % | 98.3
UCCGAGCCUGGGUCUCCCUCUU [hsa-miR-615-3p] | % | 74.9
UCCUUUGCCUAUUCUAUUUAAG [hsa-miR-3121-5p] | % | 56.5
AAGACUGAGAGGAGGGA [hsa-miR-4499] | % | 123
AUUCCUAGAAAUUGUUCAUA [hsa-miR-384] | % | 107
AAUCGUACAGGGUCAUCCACUU [hsa-miR-487b] | % | 59.9
GCGGUGAUCCCGAUGGUGUGAGC [hsa-miR-598-5p] | % | 93.1
AUGGAGAUAGAUAUAGAAAU [hsa-miR-620] | % | 62.9
UAAUCCUUGCUACCUGGGUGAGA [hsa-miR-500a-5p] | % | 55
UGAUUGGUACGUCUGUGGGUAG [hsa-miR-509-3p] | % | 37.8
GGGACCCAGGGAGAGACGUAAG [hsa-miR-711] | % | 80.1
CAGGACUUGACGGCUGCAACU [hsa-miR-8083] | % | 71
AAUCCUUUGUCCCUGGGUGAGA [hsa-miR-501-5p] | % | 33.2

###

tested on: MCF10A; experiment: 5+ nucleoli phenotype percent effect (relative to siNT 0% and siKIF11 100%); higher = more cells with five or more nucleoli; details: 20 nM; 72 h
Everything with 5+ nucleoli phenotype percent effect lower than -10% is not met; everything else, including exactly -10%, is met.

residue.string | class.label
UACUCAGGAGAGUGGCAAUCAC [hsa-miR-510] | not met
ACAGGCACGACUGGUUUGGCA [hsa-miR-6715b-5p] | not met
AAUAAAGUUCAUGUAUGGCAA [hsa-miR-5590-3p] | not met
UACAAGUCAGGAGCUGAAGCAG [hsa-miR-6882-5p] | met
UGAGUCAGCAACAUAUCCCAUG [hsa-miR-5702] | met
GAGUGUAGUUCUGAGCAGAGC [hsa-miR-4280] | not met
AUGAGCGACUGUGCCUGACC [hsa-miR-5708] | not met
CACAUUACACGGUCGACCUCU [hsa-miR-323a-3p] | not met
UGGGAACUUAGUAGAGGUUUAA [hsa-miR-4471] | met
ACUGUUGCUAAUAUGCAACUCU [hsa-miR-367-5p] | met
AGGAGGUGGUACUAGGGGCCAGC [hsa-miR-6851-5p] | not met
CUCCUACAUAUUAGCAUUAACA [hsa-miR-155-3p] | met
CCGGUCCCAGGAGAACCUGCAGA [hsa-miR-4746-5p] | met
UGGGAGCUGGACUACUUC [hsa-miR-4300] | met
UCGGGGCAUGGGGGAGGGAGGCUGG [hsa-miR-6775-5p] | met
UGGGAGCUAAGCUAUGGGUAU [hsa-miR-5591-5p] | met
UGACUCUGCCUGUAGGCCGGU [hsa-miR-4522] | not met
ACAUUGCCAGGGAGUUU [hsa-miR-4317] | not met
UUCUCUUUCUUUAGCCUUGUGU [hsa-miR-4753-3p] | not met
UUGCACUUGUCUCAGUGA [hsa-miR-4325] | not met
UGUGGUAGAUAUAUGCACGAU [hsa-miR-4536-5p] | not met
GAUCCCUUUAUCUGUCCUCUAG [hsa-miR-6866-3p] | met
ACUGGAUUUGGAGCCAGAA [hsa-miR-378j] | met
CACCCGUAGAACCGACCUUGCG [hsa-miR-99b-5p] | met

###

system: MCF10A; test: percent viability (nuclei count relative to siNT); higher = more viable cells; details: 20 nM; 72 h
// returns false unless percent viability is strictly below 40%, in which case true

residue.string | class.label
UAUGGCUUUUCAUUCCUAUGUGA [hsa-miR-135b-5p] | false
GCAUGUGAUGAAGCAAAUCAGU [hsa-miR-3607-5p] | false
GAACGGCUUCAUACAGGAGUU [hsa-miR-337-5p] | false
UUUUCAACUCUAAUGGGAGAGA [hsa-miR-1305] | false
CAAGGCCAAAGGAAGAGAACAG [hsa-miR-4753-5p] | true
UACGUAGAUAUAUAUGUAUUUU [hsa-miR-1277-3p] | false
CCCUCAUCUUCCCCUCCUUUC [hsa-miR-6891-3p] | true
GCCCCUGGGCCUAUCCUAGAA [hsa-miR-331-3p] | false
UCUCACACAGAAAUCGCACCCGU [hsa-miR-342-3p] | false
GGUAUCCGUUUGGGGAUGGU [hsa-miR-3713] | true
GUUCCUGCUGAACUGAGCCAG [hsa-miR-3074-5p] | false
GCCCUGACCUGUCCUGUUCUG [hsa-miR-4732-3p] | false
AUGUGGGCUCAGGCUCA [hsa-miR-4296] | true
UUGCUCACUGUUCUUCCCUAG [hsa-miR-1178-3p] | false
UGUGUGGAUCCUGGAGGAGGCA [hsa-miR-3911] | true
UUAUCAGAAUCUCCAGGGGUAC [hsa-miR-361-5p] | false
UGUCCUCUGUUCCUCAG [hsa-miR-6852-3p] | true
UAUUGCACUUGUCCCGGCCUGU [hsa-miR-92a-3p] | false
UCCCAGGGUCUGGUCAGAGUUG [hsa-miR-6764-5p] | true
CAUCUGGGCAACUGACUGAAC [hsa-miR-1298-3p] | true
UAGCGGGGAUUCCAAUAUUGG [hsa-miR-4781-5p] | true
GCUGACUCCUAGUCCAGGGCUC [hsa-miR-345-5p] | false
ACUGAUUUCUUUUGGUGUUCAG [hsa-miR-29a-5p] | false

###

system: MCF10A; assay: one-nucleolus phenotype percent effect (relative to siNT 0% and siNOL11 100%); higher = more cells with one nucleolus (ribosome biogenesis inhibition); settings: 20 nM; 72 h

residue.string | one-nucleolus phenotype percent effect / %
ACUCCAGUUUUAGUUCUCUUG [hsa-miR-3925-3p] | -22.1
ACUGCCCUAAGUGCUCCUUCUGG [hsa-miR-18a-3p] | -2.39
ACUCUUUCCCUGUUGCACUAC [hsa-miR-130b-5p] | -13.5
AUUUCCCUGCCAUUCCCUUGGC [hsa-miR-4446-5p] | 28.2
GGGAAGAGCUGUACGGCCUUC [hsa-miR-6077] | 32.5
CAGAACAGGAGCAUAGAAAGGC [hsa-miR-4773] | -20.2

###

system: MCF10A; test: percent viability (nuclei count relative to siNT); higher = more viable cells; details: 20 nM; 72 h
// returns 0.0 unless percent viability is strictly below 50%, in which case 1.0

residue.string | class.label
UAUGUCUGCUGACCAUCACCUU [hsa-miR-654-3p] | 1.0
GGGGAGGUGUGCAGGGCUGG [hsa-miR-6799-5p] | 0.0
UUUAGAUUGAACAUGAAGUUAG [hsa-miR-4760-5p] | 0.0
GUGGUCUCUUGGCCCCCAG [hsa-miR-6848-3p] | 0.0
CGGGGUUUUGAGGGCGAGAUGA [hsa-miR-193b-5p] | 1.0
AAAGACUCUGCAAGAUGCCU [hsa-miR-4432] | 0.0
UGGGGGAGUGCAGUGAUUGUGG [hsa-miR-5698] | 0.0
UGUGACUUCUCCCCUGCCACAG [hsa-miR-6820-3p] | 1.0
UGUUGCAAGUCGGUGGAGACGU [hsa-miR-4684-3p] | 1.0
UCUCGCAUCAGGAGGCAAGG [hsa-miR-6872-5p] | 0.0
UCUCAGGAGUAAAGACAGAGUU [hsa-miR-3664-3p] | 0.0
UCUGUAGCCUGGGAGCAAUGGGGU [hsa-miR-3137] | 1.0

Hello, the source for this data is the supplement of paper PMC10899765, in case you need it.
